Test system: MCF-7
Test: Cytotoxic activity in vitro, SRB
Assay type: cell-based, human
quantity: pEC50
Formally, pEC50 is defined as -log10 of the concentration c, with c in mol/L.

Name the reported pEC50 value associated with the molecule "O=c1c2ccccc2n2nnc3ccc(NCCCN4CCN(CCCNc5c6ccccc6nc6cccc([N+](=O)[O-])c56)CC4)c1c32"
6.99

# input molecule: "Cc1ccc(NCCCNCCCNc2c3ccccc3nc3cccc([N+](=O)[O-])c23)c2c(=O)c3ccccc3[nH]c12" ; wanted: its pEC50
6.64

Bench note: what pEC50 did "O=c1c2ccccc2n2cnc3ccc(NCCNCCNCCNc4c5ccccc5nc5cccc([N+](=O)[O-])c45)c1c32" show?
7.09

Quick check: pEC50 of "CN(CCCNc1c2ccccc2nc2cccc([N+](=O)[O-])c12)CCCNc1ccc2nnn3c4ccc(O)cc4c(=O)c1c23" ?
6.66

Dear colleague, I am looking for the recorded pEC50 of the following molecule: "O=c1c2ccccc2[nH]c2c([N+](=O)[O-])ccc(NCCCN3CCN(CCCNc4c5ccccc5nc5cccc([N+](=O)[O-])c45)CC3)c12"
7.11

What measured pEC50 goes with "CN(CCCNc1c2ccccc2nc2cccc([N+](=O)[O-])c12)CCCNc1ccc([N+](=O)[O-])c2[nH]c3ccc(O)cc3c(=O)c12" ?
7.13

Name the reported pEC50 value associated with the molecule "CN(CCCNc1c2ccccc2nc2cccc([N+](=O)[O-])c12)CCCNc1ccc([N+](=O)[O-])c2[nH]c3ccccc3c(=O)c12"
6.16

Form field: reported pEC50 of "O=c1c2ccccc2n2cnc3ccc(NCCCN4CCN(CCCNc5c6ccccc6nc6cccc([N+](=O)[O-])c56)CC4)c1c32"
7.09

Look up pEC50 for this molecule: "Cc1ccc([N+](=O)[O-])c2c(NCCCN3CCN(CCCNc4ccc5ncn6c7ccc(O)cc7c(=O)c4c56)CC3)c3ccccc3nc12"
6.61
